The following molecules are listed with their measured pIC50 values.
TARGET: human plasma renin (Homo sapiens, UniProt P00797)
Sequence (P00797 67-406): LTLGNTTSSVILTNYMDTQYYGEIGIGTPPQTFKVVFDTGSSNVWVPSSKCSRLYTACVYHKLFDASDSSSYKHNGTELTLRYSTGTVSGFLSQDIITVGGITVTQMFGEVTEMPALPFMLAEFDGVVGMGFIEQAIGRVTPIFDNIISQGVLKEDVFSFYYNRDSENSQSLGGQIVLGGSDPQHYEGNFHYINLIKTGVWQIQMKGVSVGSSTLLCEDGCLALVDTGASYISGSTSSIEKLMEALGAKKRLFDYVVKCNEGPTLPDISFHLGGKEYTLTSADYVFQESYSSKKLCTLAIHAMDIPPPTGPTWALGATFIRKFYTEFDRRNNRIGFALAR
TEST: Inhibition of human plasma renin, in vitro method of Boger et al.
SETUP CONDITIONS: J. Med. Chem. (1985) 28, 1779, read-out: IC₅₀
The scale used: pIC50 is minus the common logarithm of the concentration in molar units.

// query Field request: pIC50 | item: CC(C)(C)OC(=O)N[C@@H](Cc1ccccc1)C(=O)N[C@@H](Cc1cnc[nH]1)C(=O)N[C@@H](CC1CCCCC1)[C@@H](O)[C@@H]1C[C@H]2COC[C@H](C3CCCC3)N2C1=O [Example 3D]
// result 9.00

// query Note, next up: CC(C)C[C@H]1COC[C@@H]2C[C@@H]([C@H](O)[C@H](CC3CCCCC3)NC(=O)[C@H](Cc3cnc[nH]3)NC(=O)[C@H](Cc3ccccc3)NC(=O)OC(C)(C)C)C(=O)N12 [Example 3C]
// result 8.70

// query Note, next up: C=C(C)C[C@H]1COC[C@@H]2C[C@@H]([C@H](O)[C@H](CC3CCCCC3)NC(=O)[C@H](Cc3cnc[nH]3)NC(=O)[C@H](Cc3ccccc3)NC(=O)OC(C)(C)C)C(=O)N12 [Example 3B]
// result 9.01

// query Note, next up: C=CC[C@H]1COC[C@@H]2C[C@@H]([C@H](O)[C@H](CC3CCCCC3)NC(=O)[C@H](Cc3c[nH]cn3)NC(=O)[C@H](Cc3ccccc3)NC(=O)OC(C)(C)C)C(=O)N21 [Example 3A]
// result 8.89

// query Note, next up: CCC[C@H]1COC[C@@H]2C[C@@H]([C@H](O)[C@H](CC3CCCCC3)NC(=O)[C@H](Cc3cnc[nH]3)NC(=O)[C@H](Cc3ccccc3)NC(=O)OC(C)(C)C)C(=O)N21 [Example 3E]
// result 9.00
